tested on: Fathead minnow (Pimephales promelas) acute toxicity, lethality; experiment: DSSTox (EPAFHM) EPA Fathead Minnow Acute Toxicity
Measured Endpoint: Potency

- Compound: "CCCC(C)=O"
  Assayed System: "Fathead minnow (Pimephales promelas) acute toxicity, lethality"
  Test Result: "14400 µM"
- Compound: "COc1cc(C=O)ccc1O"
  Assayed System: "Fathead minnow (Pimephales promelas) acute toxicity, lethality"
  Test Result: "551 µM"
- Compound: "CCC1(CCC(C)C)C(=O)NC(=O)NC1=O"
  Assayed System: "Fathead minnow (Pimephales promelas) acute toxicity, lethality"
  Test Result: "377 µM"
- Compound: "C=CCC1(C(C)CCC)C(=O)N=C(O)NC1=O (stereo not drawn)"
  Assayed System: "Fathead minnow (Pimephales promelas) acute toxicity, lethality"
  Test Result: "90.7 µM"
- Compound: "O=c1ccc(Cl)c[nH]1"
  Assayed System: "Fathead minnow (Pimephales promelas) acute toxicity, lethality"
  Test Result: "8800 µM"
- Compound: "COCCN"
  Assayed System: "Fathead minnow (Pimephales promelas) acute toxicity, lethality"
  Test Result: "6980 µM"
- Compound: "Oc1c(Cl)c(Cl)c(Cl)c(Cl)c1Cl"
  Assayed System: "Fathead minnow (Pimephales promelas) acute toxicity, lethality"
  Test Result: "0.912 µM"
- Compound: "CC(=O)C(C)C"
  Assayed System: "Fathead minnow (Pimephales promelas) acute toxicity, lethality"
  Test Result: "10000 µM"
- Compound: "CN(C)c1ccc(C=O)cc1"
  Assayed System: "Fathead minnow (Pimephales promelas) acute toxicity, lethality"
  Test Result: "306 µM"
- Compound: "COc1ccc(O)cc1"
  Assayed System: "Fathead minnow (Pimephales promelas) acute toxicity, lethality"
  Test Result: "886 µM"
- Compound: "Cc1ccc(N)cc1"
  Assayed System: "Fathead minnow (Pimephales promelas) acute toxicity, lethality"
  Test Result: "1490 µM"
- Compound: "COC(C)=O"
  Assayed System: "Fathead minnow (Pimephales promelas) acute toxicity, lethality"
  Test Result: "4820 µM"
- Compound: "CNc1ccccc1"
  Assayed System: "Fathead minnow (Pimephales promelas) acute toxicity, lethality"
  Test Result: "933 µM"
- Compound: "CN(C)Cc1ccccc1"
  Assayed System: "Fathead minnow (Pimephales promelas) acute toxicity, lethality"
  Test Result: "280 µM"
- Compound: "CCOC(=O)c1ccc(N)cc1"
  Assayed System: "Fathead minnow (Pimephales promelas) acute toxicity, lethality"
  Test Result: "216 µM"
- Compound: "C=CCc1ccccc1O"
  Assayed System: "Fathead minnow (Pimephales promelas) acute toxicity, lethality"
  Test Result: "112 µM"
- Compound: "CCCCCCC1CCC(=O)O1 (stereo not drawn)"
  Assayed System: "Fathead minnow (Pimephales promelas) acute toxicity, lethality"
  Test Result: "106 µM"
- Compound: "NCCN1CCNCC1"
  Assayed System: "Fathead minnow (Pimephales promelas) acute toxicity, lethality"
  Test Result: "17000 µM"
